# experimentalTarget: Human CD137 ECD (human)
# Sequence (chain, as listed by the source limits assumed): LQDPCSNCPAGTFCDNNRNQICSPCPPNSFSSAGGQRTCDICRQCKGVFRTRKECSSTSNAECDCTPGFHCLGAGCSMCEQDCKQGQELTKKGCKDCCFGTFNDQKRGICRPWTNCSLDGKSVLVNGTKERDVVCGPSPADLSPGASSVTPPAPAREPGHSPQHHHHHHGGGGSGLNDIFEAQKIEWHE
# protocolSummary: SPR, vs parent H183/L072
readoutKind: fold change of affinity

Prompt: GET /values?readout=fold change of affinity&item= dBBDu183H A100T / dBBDu072L (antibody, name in Kabat numbering, V domains shown) VH: QVQLVESGGGLVQPGRSLRLSCAASGFTFSNAWMHWVRQAPGKGLEWVAQIKDKGNAYAAYYAPSVKGRFTISRDDSKNSIYLQMNSLKTEDTAVYYCHYVHYASTSTVLPAFGVDAWGQGTTVTVSS VL: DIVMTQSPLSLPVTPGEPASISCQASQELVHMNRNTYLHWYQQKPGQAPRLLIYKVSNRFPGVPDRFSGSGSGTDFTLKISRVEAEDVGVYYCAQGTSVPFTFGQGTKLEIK
Response: 0 fold

Prompt: GET /values?readout=fold change of affinity&item= dBBDu183H V100iD / dBBDu072L (antibody, name in Kabat numbering, V domains shown) VH: QVQLVESGGGLVQPGRSLRLSCAASGFTFSNAWMHWVRQAPGKGLEWVAQIKDKGNAYAAYYAPSVKGRFTISRDDSKNSIYLQMNSLKTEDTAVYYCHYVHYASASTVLPAFGDDAWGQGTTVTVSS VL: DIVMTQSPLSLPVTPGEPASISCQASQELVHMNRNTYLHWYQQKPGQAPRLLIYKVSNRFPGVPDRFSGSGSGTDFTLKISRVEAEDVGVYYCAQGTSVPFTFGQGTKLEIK
Response: 0 fold

Prompt: GET /values?readout=fold change of affinity&item= dBBDu183H H93E / dBBDu072L (antibody, name in Kabat numbering, V domains shown) VH: QVQLVESGGGLVQPGRSLRLSCAASGFTFSNAWMHWVRQAPGKGLEWVAQIKDKGNAYAAYYAPSVKGRFTISRDDSKNSIYLQMNSLKTEDTAVYYCEYVHYASASTVLPAFGVDAWGQGTTVTVSS VL: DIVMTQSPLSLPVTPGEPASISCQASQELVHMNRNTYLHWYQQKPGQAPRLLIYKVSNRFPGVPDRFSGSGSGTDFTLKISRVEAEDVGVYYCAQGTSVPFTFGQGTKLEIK
Response: 0 fold
